B1: OR4K15 (parent)
chain: GUUAACGGUCAUAGGCCAUGGAAACUAGGAGCACCAUUUCGCUGCCAGUGAAGAAAUGAACAAAGAAAAUCUGGGCCAGGCAGGCAUCAAAAGAAAUAGUCUUGCGCUCAACCAGAAAGUCUGUAAUCAUUUUAAGGGUA

- Variants of: B1
- assay.name: self-cleavage, relative activity (ratio to wild type); higher = more cleavage; in vitro, sequencing; the parent is a self-cleaving ribozyme
measurement.label: self-cleavage
Returns: the value as a bare number; no unit string appended.

Query: self-cleavage; subject: U2C C10A 1.94

Follow-up entry: A69G G123A 1.43

And the next one, A5G A11U ? 0.86

Subsequent entry: A64G U139C 1

Next record, please: G84A U102A 2.02

Then what about the variant G73U A78U ? 0.15

Moving on to A47U A116C 0.05

Can you handle A24G A114G next? 0.44

Next up: U9A G15C 0.57

Same read-out for A62G U70C ? 0.47

Another: A62G U120C 1.07

Another variant to check: U37C U100C 1.67

Same read-out for U26C A86C ? 0.7

Then this variant: A82U U131A 0.07

Please answer likewise for A54G A62G 0.92

Now consider `A95G` and answer again. 1.85

Next record, please: G29A U72C 0.27

Could you do the same for G29U A59G , please? 1.31

Item: U3A A68G 2.27

Consider next the variant A90G A110G in the same way. 0.1

What do you have for A66G A134G ? 1.66

Queued: U39C U122C 1.84

A5U U70A , same question. 1.23

Please give the result for A96G G115A too. 0.07

And for U2C U131C ? 1.08

Field entry: U3C A30G 0.92

Do the same for `C45U` please 1.72

Also, G21A A114U please. 0.05

Same again, this time with A23U U102A 1.09

Same thing, different variant: A36G A82U 0.1

# repeat for A67G G138A 0.97

Can you check A27G U127A next? 1.58

And for U3C A47G ? 1.39

Okay, and U12A A110C ? 0.34

Cool, now A63G A92G 1.66

Moving on to the next variant: A51G A98G 0.29

Could you do the same for A92U A117G , please? 2.08

Likewise for A98C U100C ? 2.44

And what about the variant A91C U124C ? 1.67

Please answer likewise for A82G A118C 0.28

Item: A96U A111G 0.04

Same lookup for U26A A47G , please. 0.94

Try this variant too: A116G A135G 0.5

How about this variant: A66U U70A 0.62

Ok, now A24G A96G 1.2

And A63G U133C ? 1.18

Field entry: A47G A59G 0.86

Entry U3C A125U please 0.83

Then what about the variant G83U A110G ? 0.06

Check U37C U122A too. 1.4

Check C88A U102A too. 0.58

Field entry: A82G A92G 0.67

# repeat for U19A A33G 0.62

And then C112U A118G , what is it? 0

What about this variant? A24G A54G 1.12

Field entry: A5G A24U 0.83

Try U37A A62G next. 1.37

Now the same for A86G A90G 1.13

What about U2C A52C ? 1.25

Try U102A C107U next. 0.01

Another variant to look at: A78U U97C 0.36

And what about the variant A5G G7U ? 1.05

Here is the next variant: A64G A135G 1.7

Try the variant A64U U131C 1.58

Then this variant: A52G A140G 1.63

Please give the result for A24U A55G too. 1.53

Now consider A54U A82U . 0.24

Further, for A51G U87G ? 0.43

One more variant: A13U U87A 1.61

U57A A82U ? 0.31

Cool, now A62C U122C 1.33

Then what about the variant A22G A60G ? 0.94

Okay, and C40U U103C ? 0.96

Repeat for the following variant: A91G U122A 0.96

And for A27U A52G ? 1.91

// next record U26C U120C 0.85

Moving on to U3C U49C 0.5

Also, U37C U57G please. 0.5

Same question, G14A A22G this time 0.51

Follow-up entry: A62C A69G 0.62

Continue with A92G A96G 0.99

Queued: A86G A94U 2.2

Check C61U A140G too. 1.73

Would you kindly repeat that for U39C U57A ? 0.92

Let us now turn to A5G A78U 0.46

Moving on to A24G G104U 0.01

Try the variant G14U A111G 0.05

Entry to check: G74A A140U 0.22

Now the same for A36G A66U 2.4

Same for U122C C128A 0.38

Quick one: G7U U19C 1.79
